Origin of measurements: the supplement of paper PMC8728848

Target: Fuc(a1-2)Gal(b1-4)Glc
Assay: glycan array binding signal (z-score within array); higher = stronger binding
Conditions: glycan notation: IUPAC condensed, linker removed
About 410 targets per protein were measured; listed, in parts, are those with the strongest signals and a random draw of the rest.
PROPERTY MEASURED: glycan array binding signal (z-score)
Write the number on its own, no unit after it.

A selection of reference data follows.
INSERT INTO measurements (binder, observed_measurement) VALUES
  ('Epa1to9 (Candida glabrata) (protein) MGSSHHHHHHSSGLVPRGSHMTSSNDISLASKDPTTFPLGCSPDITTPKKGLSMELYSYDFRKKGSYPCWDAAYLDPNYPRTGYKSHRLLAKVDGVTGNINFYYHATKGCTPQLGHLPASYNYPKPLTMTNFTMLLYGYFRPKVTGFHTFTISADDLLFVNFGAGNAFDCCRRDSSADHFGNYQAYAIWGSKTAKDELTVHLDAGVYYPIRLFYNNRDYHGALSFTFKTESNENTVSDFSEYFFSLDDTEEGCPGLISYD', -0.307),
  ('Epa6 (Candida glabrata), Q6DTM7_CANGB (protein) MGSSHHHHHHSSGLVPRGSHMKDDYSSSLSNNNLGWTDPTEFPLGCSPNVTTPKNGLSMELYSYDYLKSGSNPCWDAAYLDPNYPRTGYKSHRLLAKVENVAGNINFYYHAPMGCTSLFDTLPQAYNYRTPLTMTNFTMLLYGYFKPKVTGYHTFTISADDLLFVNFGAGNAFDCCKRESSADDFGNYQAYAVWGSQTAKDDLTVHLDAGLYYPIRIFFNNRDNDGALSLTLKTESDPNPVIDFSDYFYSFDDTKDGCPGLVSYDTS', -0.123),
  ('Mg1lysM (Mycosphaerella graminicola) (protein) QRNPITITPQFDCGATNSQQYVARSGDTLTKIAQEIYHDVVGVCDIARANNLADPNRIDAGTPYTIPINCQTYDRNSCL', -0.06),
  ('CBM40 CPF071 (Clostridium perfringens) (protein) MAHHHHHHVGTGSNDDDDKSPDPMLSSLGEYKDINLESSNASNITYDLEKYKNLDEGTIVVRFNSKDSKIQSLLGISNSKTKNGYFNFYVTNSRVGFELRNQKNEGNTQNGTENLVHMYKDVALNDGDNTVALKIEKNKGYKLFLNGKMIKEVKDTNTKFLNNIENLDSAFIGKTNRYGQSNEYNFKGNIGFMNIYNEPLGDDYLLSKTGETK', -0.55);

# input for lookup
Q: Requested field: glycan array binding signal (z-score). Item: PEB1 (Campylobacter jejuni), Q0P9X8 (protein) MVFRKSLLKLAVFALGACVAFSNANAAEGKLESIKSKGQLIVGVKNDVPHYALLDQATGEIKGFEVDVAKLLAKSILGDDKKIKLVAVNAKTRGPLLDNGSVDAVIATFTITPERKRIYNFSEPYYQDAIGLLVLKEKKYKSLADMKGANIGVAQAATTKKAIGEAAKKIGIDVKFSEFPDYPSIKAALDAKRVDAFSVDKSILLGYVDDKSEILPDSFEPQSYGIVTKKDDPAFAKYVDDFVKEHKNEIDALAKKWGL
Ans: -0.354
